system: CAKI-1 renal; test: NCI-60 one-dose screen, 48 h (100 = growth as untreated, 0 = no growth, -100 = all killed); settings: 10 µM unless noted
About 83,000 compounds went through this panel and 20% of them were active in at least one assay; those are over-represented in the sample as a whole.
assay metric: growth (%)

- CCCCCCC(C)CC1=C(O)c2ccccc2C(=O)C1=O (stereo not drawn): 39.7
- O=S(=O)(O)c1ccc2cc(O)ccc2c1: 99.5
- COc1ccc(CCl)c(C)c1OC: 101
- O=C1Cc2ccccc2C(=O)N1: 77
- CCCC(=O)Oc1ccc2ccccc2c1: 103
- CCOP(C)(=O)/C(Cc1ccc(OC)c(OC)c1)=N\O (stereo not drawn): 103
- O=[N+]([O-])c1cccc2ccc(N/N=C/c3ccccc3O)nc12: 80.3
- Cc1cc(-c2ccc(N=Nc3c(C)nn(-c4ccc(S(=O)(=O)O)cc4)c3O)c(C)c2)ccc1N=Nc1ccc(O)c(C(=O)O)c1: 100
- Cc1nc(Nc2ccc(Cl)cc2)c2cnn(-c3ccccc3)c2n1: 96.3
- CCOC(C)=N: 108
- Cc1c(Cl)cc(Cl)c(N)c1Cl: 88.7
- C/C=C(/C(=O)NC(N)=O)C(C)C: 104
- CSc1nc(N)c(N)c(N)n1: 97.8

###

test system: OVCAR-4 ovarian; assay: NCI-60 one-dose screen, 48 h; details: 10 µM unless noted
This is part of a sample that, as a whole, favours compounds with a hit. Of some 83,000 tested, about 20% had one in any assay. Calls of active or inactive are those of the source. The calls were made as follows: active = growth percent below 10; inactive = the rest.
Outcome codes: yes (1) for active, no (0) for inactive

* O=[N+]([O-])c1ccc(NC2CCCCC2)nc1 | no (0)
* C(#CCN1CCOCC1)CCCN1CCOCC1 | no (0)
* CC(=O)Oc1cc(C)c(OC(C)=O)c(C)c1C | no (0)
* COCCNC(C)=O | no (0)
* C=CCN1C(=O)c2ccccc2C1=O | no (0)
* N#Cc1c(N)nc2c(c(-c3ccc(Cl)cc3)nn2-c2ccccc2)c1C#N | no (0)
* Oc1cccnc1CN1CCOCC1 | no (0)
* O=C1C=CC(=O)N1Cc1ccco1 | no (0)
* CC(C)(C)C1CCC(=NO)CC1 (configuration not stated) | no (0)
* CCCCCCCCCCCCCCCCC(=O)O | no (0)
* CCOC(=N)c1ccc(C(=N)OCC)cc1 | no (0)
* Nc1[nH][nH]c(=O)c1N=Nc1ccccc1 | no (0)
* COc1ccc(CCO)cc1 | no (0)
* CCCCC/C(C)=N\NC(N)=S | no (0)
* C#CCOC(=O)C(N)CS (configuration not stated) | no (0)
* Cc1cc2ccccc2c2cc3ccccc3cc12 | no (0)
* C/C=C(/C(=O)NC(N)=O)C(C)C | no (0)
* Cc1ccc(S(=O)(=O)n2ccnc2)cc1 | no (0)
* COc1cc2c(cc1O)C(=O)CCCC2 | no (0)
* CC(C)(C)OC(=O)CC1(O)CCCCC1 | no (0)
* Oc1ccc(O)c(-c2ccccc2)c1 | no (0)
* COc1cc(Cl)ccc1C | no (0)
* Clc1ccc2sc(-c3ccccc3)nc2c1 | no (0)
* Nc1ccc(Cl)c(S(=O)(=O)O)c1 | no (0)
* O=[N+]([O-])c1ccc(NC(c2ccccc2)c2ccc3cccnc3c2O)cc1 (configuration not stated) | no (0)
* Cc1cc(Cl)nc(Nc2ccccc2)n1 | no (0)
* OCCCc1ccccc1 | no (0)
* N#CC(=S)Nc1ccc(Cl)c(Cl)c1 | no (0)
* CN(C=O)c1ccccc1 | no (0)
* COc1ccc(CCNC(=S)NN)cc1OC | no (0)
* CC1CC(O)CC(C)(C)C1.CC1CC(O)CC(C)(C)C1.CC1CC(O)CC(C)(C)C1.CC1CC(O)CC(C)(C)C1.[Ti] (configuration not stated) | no (0)
* CC(=O)c1cc2ccccc2o1 | no (0)
* COc1cc2oc3cc(=O)cc4oc(-c5ccccc5)cc(c2c2c1CCC(c1ccccc1)O2)c43 (configuration not stated) | no (0)
* O=C(O)C#Cc1ccc(Cl)cc1 | no (0)
* Cc1c(O)nc(N)[nH]c1=O | no (0)
* O=C(O)c1ccc2c3ccc(C(=O)O)c4c(C(=O)O)ccc(c5ccc(C(=O)O)c1c25)c43 | no (0)
* O=C(O)Cc1cc(=O)[nH]n(-c2ccccc2)c1=O | no (0)
* COC(=O)c1ccccc1Cl | no (0)
* Cc1ccc([N+](=O)[O-])cc1Br | no (0)
* Cc1c(Cl)c(C)c(Cc2c(C)c(Cl)c(C)c(Cl)c2O)c(O)c1Cl | no (0)
* CCN(C)c1ccccc1 | no (0)
* Nc1c(Cl)cc2c(c1Br)C(=O)c1ccccc1C2=O | no (0)
* O=COCCCc1ccccc1 | no (0)
* O=C1c2cccnc2-c2ncccc21 | no (0)
* O=C1c2ccccc2CN1c1ccccc1 | no (0)
* CC(C)(C)OC(=O)c1ccc(NCc2cc(O)ccc2O)cc1 | no (0)
* Cc1cc2nc3ccc(=[N+](C)C)cc-3sc2cc1N | yes (1)
* CCOC(=O)CN1CCC(C(=O)OCC)CC1 | no (0)
* CCOP(C)(=O)/C(Cc1ccc(OC)c(OC)c1)=N\O (configuration not stated) | no (0)
* Cc1ccc(NC(=S)N/C=C(\c2ccccc2)S(=O)Cc2ccccc2)c(C)c1 (configuration not stated) | no (0)
* CCCC(=O)OCC(COC(=O)CCC)OC(=O)CCC | no (0)
* COC(=O)C(Cc1cn(C(C)=O)c2ccccc12)P(=O)(OC)OC (configuration not stated) | no (0)
* CCOc1ccc(/C=C\C(=O)O)cc1 | no (0)
* O=C1C=CC(n2cc(F)c(=O)[nH]c2=O)O1 (configuration not stated) | no (0)
* N=c1sc2ccccc2n1CC(=O)O | no (0)
* CCOP(=O)(OCC)/C(C#N)=C/c1c(C)[nH]c2ccccc12 | no (0)
* COc1ccc2nccc(Cl)c2c1 | no (0)

###

Test system: KM12 colon
Experiment: NCI-60 one-dose screen, 48 h (100 = growth as untreated, 0 = no growth, -100 = all killed)
Conditions: 10 µM unless noted
Procedure: Growth inhibition of the KM12 human tumor cell line is measured as a screen for anti-cancer activity. Cells are grown in 96 well plates and exposed to the test compound for 48 hours. Compounds are tested at a single concentration, which is 10^-5 M for most compounds. The reported endpoint is percent growth (GI% or GIPRCNT), where numbers from 0 - 100% represent growth inhibition, and numbers from -100% - 0 represent cell death. For example, a value of 40 represents 60% growth inhibition. […]
This is part of a sample that, as a whole, favours compounds with a hit. Of some 83,000 tested, about 20% had one in any assay.
assay metric: growth (%)

* COc1ccc(/C=N/NC(N)=S)cc1 | 119
* Nc1c(Cl)cc2c(c1Br)C(=O)c1ccccc1C2=O | 106
* NC(=O)Cc1nc(O)cc(=O)[nH]1 | 106
* COc1cc2oc3cc(=O)cc4oc(-c5ccccc5)cc(c2c2c1CCC(c1ccccc1)O2)c43 (configuration not stated) | 74.3
* CCOc1ccc(/C=C\C(=O)O)cc1 | 106
* O=C(c1ccc(Cl)cc1)C1C(c2ccccc2)C1[N+](=O)[O-] (configuration not stated) | 97.9
* CCOCCC(=O)O | 117

###

system: SN12C renal; assay: NCI-60 one-dose screen, 48 h (100 = growth as untreated, 0 = no growth, -100 = all killed); conditions: 10 µM unless noted
About 83,000 compounds went through this panel and 20% of them were active in at least one assay; those are over-represented in the sample as a whole.
assay metric: growth (%)

- CCc1ccccc1-n1[nH]c(C)c(C=N)c1=O: 106
- COCCCNC1=C(C#N)C(=O)NC(c2cccs2)S1 (configuration not stated): 93
- O=C1C2=C(Nc3cc(Cl)ccc3N2)OC1c1c[nH]c2ccc(COc3ccccc3)cc12 (configuration not stated): 71.3
- Oc1ccc(O)c(-c2ccccc2)c1: 68
- CCCCCCC(C)CC1=C(O)c2ccccc2C(=O)C1=O (configuration not stated): 46.6
- O=C(c1ccc(Cl)cc1)C1C(c2ccccc2)C1[N+](=O)[O-] (configuration not stated): 104
- O=C(O)c1ccc2c3ccc(C(=O)O)c4c(C(=O)O)ccc(c5ccc(C(=O)O)c1c25)c43: 101
- CCc1ccc(OC(=O)CCl)cc1: 106
- CC1NC(C)c2ccc3ccccc3c2O1 (configuration not stated): 99.1
- CCOC(=O)CN1CCC(C(=O)OCC)CC1: 99.7
- O=C(c1ccncc1)c1c(Cc2ccccc2)ccc2ccccc12: 90.6
- COC(=O)CCOc1ccccc1: 110
- COC(=O)c1nc(N)nc(C(=O)OC)c1C(=O)c1cccc2ccccc12: 99.5
- ON=C(C1CCCCC1)C1CCCCC1: 99.9
- CSc1nc(N)c(N)c(N)n1: 99.4
- Nc1c(Cl)cc2c(c1Br)C(=O)c1ccccc1C2=O: 87.3
- CC(C)(C)C1CCC(=NO)CC1 (configuration not stated): 103
- CN(C)CC(CN(C)C)C(O)c1ccccc1 (configuration not stated): 103
- O=C1c2ccccc2CN1c1ccccc1: 90.5
- COC(=O)c1nc(=S)[nH]c(C(=O)OC)c1C(=O)c1ccccc1: 99.2
- Cc1cc(-c2ccc(N=Nc3c(C)nn(-c4ccc(S(=O)(=O)O)cc4)c3O)c(C)c2)ccc1N=Nc1ccc(O)c(C(=O)O)c1: 95.8
- COC(=O)c1cc(C(=O)OC)cc([N+](=O)[O-])c1: 111
- CCOCCC(=O)O: 103
- CCOC(=O)c1ccc(N2C(=O)C(Cl)(c3ccccc3)C2c2ccco2)cc1 (configuration not stated): 95
- Cc1cc(=NO)cc(C)n1O: 100
- O=C1c2ccccc2C(c2ccccc2)C1c1ccccc1 (configuration not stated): 93.5
- CNc1ccc(O)cc1: 103
